TARGET_OF_ASSAY: T1, FGFR2c on QhTERT cells (UniProt P21802-1 22-821)
T1 construct: fibroblast growth factor receptor 2, isoform IIIc (C-terminus of D3 encoded by exon 9), stably expressed in human QhTERT cells; also called FGFR2IIIc; isoform IIIc of FGFR2
TEST_NAME: flow cytometry on cells; apparent dissociation constant; Cy5.5-labeled peptide 0 to 200 nM in 25 nM increments in PBS, ~10^5 QhTERT/FGFR2c cells, 4°C for 1 hour, mean fluorescence intensity
APPLIED_CONDITIONS: one partner purified
No end group written: not given here. Cy5.5 = near-infrared fluorophore Cy5.5
MEASURED_ENDPOINT: pKd
Give bare numbers, as −log10 of the molar value.

Dear colleague, please send me the reported pKd for SRRPASFRTAREGGGSK(Cy5.5)-NH2 (12-residue peptide selected by phage display (Ph.D.-12 library) against FGFR2-ECD; linker on the C-terminus that carries the Cy5.5; Assembled on rink amide MBHA resin, so the C-terminus is probably an amide; also called FGFR2 peptide; source: synthetic peptide (Fmoc solid-phase synthesis, prep-HPLC, >97%)) [SRR*-Cy5.5] when you can. 7.17
